Reported values of Activity for individual entries
Tested on: Rattus norvegicus
Procedure Summary: Decrease in serum cholesterol level in hypercholesterolemic Wistar rat at 20 mg/kg, po for 1 week with diet
Type: functional

[[record]]
molecule = "Brc1ccc(/C=C/CSSC/C=C/c2ccc(Br)cc2Br)c(Br)c1"
target_entity = "Rattus norvegicus"
parameter_measured = "Activity"
result = "41.61 mg/dL"

[[record]]
molecule = "C=CCS[S+]([O-])CC=C (stereo unspecified) [ALLICIN]"
target_entity = "Rattus norvegicus"
parameter_measured = "Activity"
result = "42.69 mg/dL"


Consider the molecule Clc1ccccc1/C=C/CSSC/C=C/c1ccccc1Cl and give its recorded Activity. 37.29 mg/dL

Consider the molecule Fc1ccc(/C=C/CSSC/C=C/c2ccc(F)cc2)cc1 and give its recorded Activity. 42.15 mg/dL

Consider the molecule Brc1ccccc1/C=C/CSSC/C=C/c1ccccc1Br and give its recorded Activity. 41.07 mg/dL

Consider the molecule FC(F)(F)c1ccc(/C=C/CSSC/C=C/c2ccc(C(F)(F)F)cc2)cc1 and give its recorded Activity. 42.69 mg/dL
